Taken from ChEMBL document CHEMBL1201862.

In this section we review reported GI50 values for a set of compounds.
tested on: NCI-H23; test: NCI tumour cell line growth inhibition, 48 h
Activity calls are given as the source filed them. No stated cut-off is given here; in the data, active = GI50 up to about 1.1 µM and inactive = higher.

// solved cases for GI50 follow
{"compound": "O=c1[nH]c(=O)n([C@H]2C[C@@H](CO)[C@@H](O)C2)cc1I", "GI50": "> 100 µM (inactive)"}
{"compound": "COC(=O)C1C(=O)NC2(C)CC1c1ccccc1O2 (stereo not given)", "GI50": "> 100 µM (inactive)"}
{"compound": "CN(C)CCCNC(=O)CNC(=O)c1cc(NC(=O)c2cc(NC(=O)c3cc(NC(=O)CCNC(=O)c4cc(NC(=O)c5cc(NC(=O)c6nccn6C)cn5C)cn4C)cn3C)cn2C)cn1C", "GI50": "> 100 µM (inactive)"}
{"compound": "COC1=CC(=O)[C@H]2[C@H](C)C(c3ccccc3)[C@@]2(C)C1=O (stereo not given in full)", "GI50": "> 100 µM (inactive)"}
{"compound": "COc1ccc(N2C(=O)C3c4[nH]c5cccc(Cl)c5c4C4CCC(C(C)(C)C)CC4C3C2=O)cc1 (stereo not given)", "GI50": "> 100 µM (inactive)"}
{"compound": "C[C@H]1CC[P+](Cc2ccccc2)(c2ccccc2)C1 (stereo not given in full)", "GI50": "> 100 µM (inactive)"}
{"compound": "CC(C)N(C(=O)C12C3C4C5C3C1(C(=O)N(C(C)C)C(C)C)C5C42)C(C)C (stereo not given)", "GI50": "> 100 µM (inactive)"}
{"compound": "CC(C)(C)O/C=C1/C(=O)OC2C[C@@H](O[Si](C)(C)C(C)(C)C)CC12 (stereo not given in full)", "GI50": "39.7 µM (inactive)"}
{"compound": "CCN(CC)CC1CCCCN1CC(=O)N1c2ccccc2NC(=O)CC1C (stereo not given)", "GI50": "> 100 µM (inactive)"}
{"compound": "COCCCNc1nc(N)c(C#N)c(C#N)c1C#N", "GI50": "> 10 µM (inactive)"}

Input: Give recorded GI50 with NCI-H23 for the following compound: Cn1cc2c3ccccc3nc-2c2ccccc21 [ISOCRYPTOLEPINE]
Output: 1.51 µM (inactive)

Input: What measured GI50 is associated with "O=C(OC[C@H]1C[C@H]2C(=O)CCC[C@H]2O1)c1ccccc1" on NCI-H23?
Output: > 100 µM (inactive)

Input: Query GI50 on NCI-H23 for "NCCCN1CCN(CCCNc2ccc3nnn4c5ccccc5c(=O)c2c34)CC1"
Output: 14.8 µM (inactive)

Input: For NCI-H23, provide GI50 of O=CC(O)C(O)C(O)C(O)C(=O)NCCCCCCCCCCCCNC(=O)C(O)C(O)C(O)C(O)C=O (stereo not given) please.
Output: > 100 µM (inactive)

Input: Under NCI-H23: GI50 value of "COC(=O)[C@@H]1N2C(=S)N(c3ccccc3)C(=O)[C@H]2SC1(C)C" ?
Output: > 100 µM (inactive)

* * *

system: DMS-273; assay: NCI tumour cell line growth inhibition, 48 h
The source made the active and inactive calls. No stated cut-off is given here; in the data, active = GI50 up to about 1.1 µM and inactive = higher.
Choose one outcome from this list and give only that: TRUE for active, FALSE for inactive

{"compound": "COc1cc([C@H]2c3[nH]c4ccccc4c3C[C@H]3COC(=O)N32)cc(OC)c1O", "classLabel": "TRUE"}
{"compound": "CNC(=O)NCCCCC(NC(C)=O)C(=O)NCc1ccccc1 (stereo not drawn)", "classLabel": "FALSE"}
{"compound": "Nc1ccc(C(=O)CC2(O)C(=O)Nc3ccccc32)cc1 (stereo not drawn)", "classLabel": "FALSE"}
{"compound": "Cc1cccc(C)c1NC(=O)/C(=N/NC(N)=S)C(C)C(=O)c1ccc(Cl)cc1 (stereo not drawn)", "classLabel": "FALSE"}
{"compound": "O=[PH](O)c1cc2c3ccccc3ccc2c2ccccc12", "classLabel": "FALSE"}
{"compound": "Cc1[nH]c2ccccc2c1C(=O)CC1(O)C(=O)Nc2ccccc21 (stereo not drawn)", "classLabel": "FALSE"}
{"compound": "O=C(/C=C/c1ccccc1Cl)c1ccc(Cl)c(Cl)c1", "classLabel": "FALSE"}
{"compound": "CCCCNCC(=O)O[C@]1(CC)C(=O)OCc2c1cc1n(c2=O)Cc2cc3ccccc3nc2-1", "classLabel": "TRUE"}
{"compound": "CCCC(=O)N[C@H]1C2C3CC4C5CC(C42)C1(C)C53 (stereo partly drawn)", "classLabel": "FALSE"}
{"compound": "COc1ccc2c(c1)CCC1C3(CCCC21C)OCCO3 (stereo not drawn)", "classLabel": "FALSE"}

Input: Could you please tell me the result logged for "CCOC(=O)c1oc2ccc(OC)c3c2c1CCC3" in this assay?
Output: FALSE

Input: For COc1cc2c(cc1OC)C1C=NC(C(=O)O)(C2)c2ccccc21 (stereo not drawn) , what call appears in the results of this test?
Output: FALSE

Input: Per the records of this test, what outcome belongs to "COC(=O)c1cc(-c2cccn2C)c2c(c1C(=O)OC)c1ccccc1n2C" ?
Output: FALSE

Input: Hi, do you know how CC1CC2C(=O)NC(=O)C2c2[nH]c3ccccc3c21 (stereo not drawn) came out in this test?
Output: FALSE

Input: In this assay, the call recorded for O=C1NCC2=C1CCC1c3ccccc3CCN21 (stereo not drawn) was what?
Output: FALSE

Input: Hi team, can someone confirm the assay call for "CN(C)C(=S)/N=c1\ssc(=S)n1C1CCCCC1" ?
Output: FALSE

Input: For "O=C(O)CCC(=O)Oc1ccc(O)c2c1CCCC2=O" , which call appears in the assay record?
Output: FALSE

Input: Entry "Nn1c(-c2cccc(Cl)c2)nc2ccccc2c1=O" : call = ?
Output: FALSE
